The molecules listed here are annotated with their growth inhibition.
# ASSAY_EXPLANATION: Restrictive medium S. cerevisiae growth inhibition, OD615, pilot screen of yeast lifespan reduction project, restrictive growth control (AID 706);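 also: modified DeaD lifespan yeast strain shifted to restrictive glucose medium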
# CONDITION_NOTES: OD615, 48 h, at 10 µM, hits give high values
Enter your answer as a number in %; do not include the unit.

Please review the following examples before continuing.
Name the reported growth inhibition value associated with the molecule COc1ccc(-c2nnc(NC(=O)C(C)C)s2)c(OC)c1 -10.3

Also check CC(C)(C)NC(=O)C1CN(S(=O)(=O)c2ccccc2)CCN1S(=O)(=O)c1ccccc1 (stereo unspecified) -4.14

# repeat for CCOC(=O)Cn1c(=O)oc2cc(S(=O)(=O)N3CCC(N4CCCCC4)CC3)ccc21 -9.77

How about CCCc1c(C(=O)OCC)[nH]c2c1C(=O)CCC2 ? 2.14

Next molecule up: CCCOc1ccc(C(=O)NCCC(=O)NCCCC(=O)OCC)cc1 -20.7

Attention now turns to another entry.
What does the record list as growth inhibition for COC(=O)c1ccsc1NC(=O)c1ccc2c(c1)OCCO2 ? -2.86

###

Parameter RAM network inhibition: see the listing below.
# ASSAY_EXPLANATION: RAM signaling pathway blockade in yeast – S. cerevisiae, Pdr1DBD-CYC8 efflux-inhibited sensitized strain, primary screen (AID 1298);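 also: 0% = DMSO untreated cells without growth and 100% = 10 µM 1-NA-PP1 full growth; higher means more yeast growth rescued from 5-FOA killing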
# CONDITION_NOTES: S. cerevisiae cbk1-as DSE1-URA3 strain, 5-FOA growth OD615, 2 d; at 50 µM; hits give high values
Express the result in % but write the number alone.

As a guide, the following entries are already answered.
Consider the compound shown here: O=S(=O)(Nc1ccc(O)cc1)c1cccc2cccnc12 What is its recorded RAM network inhibition? 0.83

Try this compound next: CCOC(=O)N1CCN(C(=O)CSc2nnc(-c3ccc(C)c(C)c3)o2)CC1 4.67

Follow-up item: Fc1ccccc1COc1ccc(/C=N/n2cnnc2)cc1 2.09

One more compound: COc1cccc(NS(=O)(=O)c2nc3nc(C)cc(C)n3n2)c1 -1

Can you handle COc1ccc2nc(NC(=O)c3ccc4ncsc4c3)sc2c1 next? 8.79

Others:
I would be grateful if you could share the reported RAM network inhibition for COc1ccc(S(=O)(=O)Cc2ccc(C(=O)NC(C)C)o2)cc1 . 1.2

Also N#Cc1ccc(NC(=O)Nc2ccc(Cl)cc2)cc1 ? 1.44

For Cc1ccccc1S(=O)(=O)Cc1ccc(C(=O)N2CCN(C3CCCCC3)CC2)o1 then? 4.62

Another compound: Cc1cc(C)cc(N(CC(=O)NC2CC3CCC2C3)S(C)(=O)=O)c1 (stereo not drawn) 2.79

Here is the next compound: O=C(NCCN1CCc2ccccc2C1)Nc1ccc(F)cc1 2.62

Then what about the compound O=C1CSC(=O)N1CC(O)COc1ccc(Cl)cc1 (stereo not drawn) ? 1.1

Same thing, different compound: CC(CCc1ccccc1)NC(=O)CSc1nccc(=O)[nH]1 (stereo not drawn) 2.7

Can you handle CN(C)S(=O)(=O)c1ccc2c(c1)c(=O)c(C(=O)N1CCN(c3ccccn3)CC1)cn2C next? 4.54

And COC(=O)c1sc(NC(=O)C2CCCCC2C(=O)O)c(C(=O)OC)c1C (stereo not drawn) ? 6.27

Further, for COC(=O)c1sccc1NC(=O)c1ccc(Br)o1 ? 7.41

Next compound: O=C(COC(=O)C1(c2ccccc2F)CCCC1)N1CCN(C(=O)c2ccco2)CC1 1.19

Moving on to the next compound: Cc1ccc(N(C(C)C(=O)O)S(=O)(=O)c2c(C)[nH]c(=O)[nH]c2=O)cc1 (stereo not drawn) -0.47

###

inhibition for assorted compounds
# ASSAY_EXPLANATION: inhibitors of the yeast RAM network, pilot screen, dse1pr::URA3 reporter, 5-FOA selection (AID 869);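 also: 0% = DMSO wells with no growth and 100% = 10 µM 1-NA-PP1 with full growth; RAM network block rescues cells from 5-FOA so hits raise OD615 growth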
# CONDITION_NOTES: S. cerevisiae dse1pr::URA3 5-FOA growth, OD615, 2 d; at 10 µM; hits give high values; strain carries analog-sensitive mutant Cbk1 kinase
The source made the active and inactive calls.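 How the source made its calls: active means inhibition over a set limit, the all-compound mean plus 3 SD, in both replicate runs; inconclusive means over that limit in just one replicate run; inactive means at or under that limit in both runs.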

The following compounds have reported results that may help.
Need inhibition of Cc1cccc(OCc2nnc(SCC(=O)NCCc3ccccc3)o2)c1 , thanks. 3.1% (inactive)

Please answer likewise for Nc1nc(SCC(=O)NCCCO)nc2sc3c(c12)CCC3 1.44% (inactive)

Now give it for CC1=C(C(=O)OCc2ccccc2)C(c2ccc(N3CCOCC3)cc2)NC(=O)N1 (stereo not given) too. 0.99% (inactive)

Then Cc1ccc(-n2nnc3c(=O)n(Cc4cccc(C)c4)cnc32)cc1 ? 2.65% (inactive)

What do we get for COCCNC(=O)CN1C(=O)CC(C)(C)S(=O)(=O)c2ccccc21 ? 0.31% (inactive)

Another: COc1ccc(N2C(=O)CC(NCc3cccc(F)c3)C2=O)cc1 (stereo not given) 0.82% (inactive)

Input CCn1cc(C(=O)Nc2ccc3c(c2)OCCO3)c2cc(OC)c(OC)cc2c1=O 0.915% (inactive)

And for CCOc1cc(N2CCOCC2)c(OCC)cc1NC(=O)c1cc(-c2ccco2)nc2ccccc12 ? 0.475% (inactive)

Okay, and CCN(CC)S(=O)(=O)c1ccc(C(=O)Nc2nnc(C(C)C)s2)cc1 ? 1.25% (inactive)

Please examine the following record next.
Record request: inhibition value, item Cc1ccc(S(=O)(=O)N2CCN(Cc3ccccc3C(F)(F)F)CC2)cc1 0.92% (inactive)

###

# ASSAY_EXPLANATION: growth suppression of PTEN-deleted HCT116, pilot screen, cell-based, HCT116 clonal line, CellTiter-Glo (AID 824);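 also: 0% = 20 µM Hyamine control and 100% = vehicle cell control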
# CONDITION_NOTES: 60 h, at 10 µM
Results filed as inconclusive are left out. Active and inactive are the calls of the source.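 The calls were made as follows: active = viability at or below 27.92% in each of two runs, the all-compound median minus 4 SD; inconclusive = no clear call, values can overlap the other calls; inactive = the rest.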
// allowed return values: active, inactive

Answered examples (3):
Which outcome was entered for the compound Cc1cc(N2CCN(C(c3ccccc3)c3ccc(Cl)cc3)CC2)n2ncnc2n1 (stereo not given) in this test? inactive

And for CCCCn1c2nc3ccccc3nc2c2c(=N)oc(C)nc21 ? inactive

CCC(C)NC(=O)C1CCN(S(=O)(=O)c2cccc3cccnc23)CC1 (stereo not given) , same question. inactive

More entries:
Please state the recorded outcome for this compound: COc1ccc(-c2nc(CS(=O)CC(=O)NCc3cccnc3)c(C)o2)cc1 (stereo not given) inactive

###

Recorded viability for the following compounds
# ASSAY_EXPLANATION: growth suppression of beta-catenin knockout HCT116, pilot screen, human colon tumor cells (AID 823);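 also: 0% = wells killed by 20 µM Hyamine and 100% = untreated DMSO cell wells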
# CONDITION_NOTES: CellTiter-Glo, 60 h, at 10 µM, hits give low values
Records with an inconclusive call do not appear.
// return numeric value only (unit: %, not printed)

Which viability value is on record for Cc1cc(C)cc(NC(=O)CSc2nnc(-c3ccccc3)n2N)c1 ? 98.1

Further, for COCC(C)NC(=O)c1ccc(N(C)C)cc1 (configuration not stated) ? 104

What do you get for Cc1nn(Cc2ccccc2)c(N)c1-c1ccccc1 ? 95.2

***
Reported viability, compound Cc1cc(C(=O)NC2CCCC2)on1 : ____ 107

Moving on to O=C(Cn1cnc2c(nnn2-c2ccccc2)c1=O)N1CCOCC1 104

Now this one: Brc1ccc(C2Nc3cccc4cccc(c34)N2)o1 85.9

What would you report for CC1CCCN(c2nc3c(c(=O)[nH]c(=O)n3C)n2CCSc2ncccn2)C1 (configuration not stated) ? 97

Would you kindly repeat that for CC(C)(C)NC(=O)CSc1nccn1Cc1ccccc1 ? 95.9

Repeat for the following compound: Cc1cc(O)c(C=Nc2cccc(Cl)c2)c(=O)o1 102

###

# maps each entry to its growth inhibition
# ASSAY_EXPLANATION: OD615 S. cerevisiae growth inhibition, permissive medium, pilot counter-assay, permissive growth control for S. cerevisiae lifespan shortening project (AID 705)
# CONDITION_NOTES: OD615, 24 h, at 10 µM, hits give high values
Hi! Could you send only the number? It should be in %, unit omitted.

Fill in the blank: the reported growth inhibition of CC(c1ccccc1F)n1cc(C(=O)NCc2ccncc2)nn1 (stereo unspecified) is ____. -19.2

O=C(CCCc1ccccc1)NCc1cn2ccsc2n1 ? -8.33

Param item: Cn1c(C(=O)N2CCC(C(=O)N3CCOCC3)CC2)cc2sccc21 -9.67

Cool, now CC(C)CNS(=O)(=O)c1ccc(S(=O)(=O)N2CCN(CCC#N)CC2)cc1 -11.7

Can you check COc1ccc(S(=O)(=O)N2CCC(C(=O)NCCC3=CCCCC3)CC2)cc1OC next? -5.45

###

# ASSAY_EXPLANATION: growth suppression of beta-catenin knockout HCT116, pilot screen, human colon tumor cells (AID 823);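 also: 0% = wells killed by 20 µM Hyamine and 100% = untreated DMSO cell wells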
# CONDITION_NOTES: CellTiter-Glo, 60 h, at 10 µM, hits give low values
Records with an inconclusive call do not appear.
Catalogue of viability readings, one per entry.
Use % as the unit, but write only the number.

Need viability, item COCCCN1Cc2cccc(C(=O)O)c2C1=O 103

Further, for CN(CC(=O)N1CC=C(c2ccccc2)CC1)S(=O)(=O)c1ccc2c(c1)c(=O)n(C)c(=O)n2C ? 94.1

Again, but for NC(=O)c1cc(S(=O)(=O)Nc2cccc(F)c2)co1 103

// repeat for CNC(=O)CN1C(=O)c2ccccc2S1(=O)=O and report 101

Try this compound too: CC1CCN(c2nc(-c3ccco3)c3c(c2C#N)CC(C)(C)OC3)CC1 90.8

Next:
What measured viability goes with O=C(Nc1nccs1)c1cccc(S(=O)(=O)N2CCOCC2)c1 ? 92.8

Lookup O=C(C1CC1)N1CCc2cc(Br)cc(S(=O)(=O)NCc3ccccn3)c21 99.2

Can you handle COc1ccc(CCNC(=O)COC(=O)c2cnc(C)cn2)cc1OC next? 106

Field entry: CN1CCN(CCCNC(=O)c2cc3c(-c4ccc(Cl)cc4)nn(C)c3s2)CC1 2.18

Can you handle CCN(c1ccccc1)c1cc(C)nc2ncnn12 next? 96.7

Now try Cc1ccc(S(=O)(=O)Cc2ccc(C(=O)N3CCN(c4ccc(F)cc4)CC3)o2)cc1 . 33
